assay summary: Partitioning between methanolic loading solution and aqueous medium (passive dosing)
Type: physicochemical
condition label: methanolic loading solution vs M4 medium at equilibrium via PDMS disk
property label: log KMeOH:medium (mean ± SD)
Please give only the number in your answer, with no unit.

c1ccc2c(c1)ccc1oc3ccccc3c12 [BNF, benzo[b]naphtho[1,2-d]furan] = 5.26
c1ccc2c(c1)ccc1oc3ccc4ccccc4c3c12 [DNF, dinaphtho[2,1-b:1′,2′-d]furan] = 5.98
c1ccc2c(c1)ccc1[nH]c3ccccc3c12 [BCRB, 7H-benzo[c]carbazole] = 4.12

The value of log KMeOH:medium (mean ± SD) measured for the molecule c1ccc2c(c1)ccc1sc3ccccc3c12 [BNT, benzo[b]naphtho[1,2-d]thiophene] turned out to be 5.46

###

assay summary: Chronic reproduction toxicity test (OECD 211) with passive dosing
Assay type: in vivo, Daphnia magna
condition label: Daphnia magna, in vivo, other: waterborne exposure by passive dosing from PDMS disks; 21-day test, 9.8 µg/L (Fig. S8); read-out: % offspring mortality of total offspring
property label: mortality at 21 days, 9.8 µg/L (%)
Reply numerically in %, unit not repeated.

The value of mortality at 21 days, 9.8 µg/L measured for the compound c1ccc2c(c1)ccc1[nH]c3ccccc3c12 [BCRB, 7H-benzo[c]carbazole] turned out to be 4

###

assay summary: Bioaccumulation test (growth, uptake, depuration; adapted from OECD 305) with passive dosing
Type: in vivo, Daphnia magna
condition label: whole body (homogenate, wet weight), Table S7, this study; read-out: half-life (converted)
Entries and their half-life
Reply numerically in h, unit not repeated.

Solved entries (count: 3):
c1ccc2c(c1)ccc1sc3ccccc3c12 [BNT, benzo[b]naphtho[1,2-d]thiophene] = 16.5
c1ccc2c(c1)ccc1oc3ccccc3c12 [BNF, benzo[b]naphtho[1,2-d]furan] = 27.7
c1ccc2c(c1)ccc1[nH]c3ccccc3c12 [BCRB, 7H-benzo[c]carbazole] = 6.23

Switching to the query record.
The value of half-life measured for the molecule c1ccc2c(c1)ccc1oc3ccc4ccccc4c3c12 [DNF, dinaphtho[2,1-b:1′,2′-d]furan] turned out to be 53.7

###

assay summary: Chronic reproduction toxicity test (OECD 211) with passive dosing
Type: in vivo, Daphnia magna
condition label: Daphnia magna, in vivo, other: waterborne exposure by passive dosing from PDMS disks; 21-day test, 0.24 µg/L (Fig. S8); read-out: % offspring mortality of total offspring
property label: mortality at 21 days, 0.24 µg/L (%)
Reply numerically in %, unit not repeated.

The value of mortality at 21 days, 0.24 µg/L measured for the compound c1ccc2c(c1)ccc1oc3ccc4ccccc4c3c12 [DNF, dinaphtho[2,1-b:1′,2′-d]furan] turned out to be 5

###

assay summary: Chronic reproduction toxicity test (OECD 211) with passive dosing
Format: in vivo, Daphnia magna
condition label: Daphnia magna, in vivo, other: waterborne exposure by passive dosing from PDMS disks; 21-day test, 0.3 µg/L (Fig. S8); read-out: % offspring mortality of total offspring
property label: mortality at 21 days, 0.3 µg/L (%)
Reply numerically in %, unit not repeated.

The value of mortality at 21 days, 0.3 µg/L measured for the compound c1ccc2c(c1)ccc1oc3ccccc3c12 [BNF, benzo[b]naphtho[1,2-d]furan] turned out to be 0.3

###

assay summary: Chronic reproduction toxicity test (OECD 211) with passive dosing
Type: in vivo, Daphnia magna
condition label: Daphnia magna, in vivo, other: waterborne exposure by passive dosing from PDMS disks; 21-day test, 1.94 µg/L (Fig. S8); read-out: % offspring mortality of total offspring
property label: mortality at 21 days, 1.94 µg/L (%)
Reply numerically in %, unit not repeated.

The value of mortality at 21 days, 1.94 µg/L measured for the compound c1ccc2c(c1)ccc1sc3ccccc3c12 [BNT, benzo[b]naphtho[1,2-d]thiophene] turned out to be 14.2

###

Tested on: Daphnia magna
assay summary: Chronic reproduction toxicity test (OECD 211) with passive dosing
Assay type: in vivo
condition label: 21-day reproduction inhibition; 97.5-2.5% confidence interval in brackets
property label: EC10

Solved entries (count: 3):
c1ccc2c(c1)ccc1sc3ccccc3c12 [BNT, benzo[b]naphtho[1,2-d]thiophene] = 0.33 (0.12-0.73) μg L^-1
c1ccc2c(c1)ccc1oc3ccc4ccccc4c3c12 [DNF, dinaphtho[2,1-b:1′,2′-d]furan] = 0.14 (0.05-0.28) μg L^-1
c1ccc2c(c1)ccc1[nH]c3ccccc3c12 [BCRB, 7H-benzo[c]carbazole] = 15.0 (8.6-24.3) μg L^-1

Switching to the query record.
Measured EC10 for this entry c1ccc2c(c1)ccc1oc3ccccc3c12 [BNF, benzo[b]naphtho[1,2-d]furan] on Daphnia magna: 0.91 (0.35-1.67) μg L^-1

###

assay summary: Chronic reproduction toxicity test (OECD 211) with passive dosing
Assay type: in vivo, Daphnia magna
condition label: Daphnia magna, in vivo, other: waterborne exposure by passive dosing from PDMS disks; at higher exposure levels, 21-day test; read-out: offspring mortality
property label: mortality at 21 days

The value of mortality at 21 days measured for the compound c1ccc2c(c1)ccc1oc3ccccc3c12 [BNF, benzo[b]naphtho[1,2-d]furan] turned out to be < 1%

###

Test system: Daphnia magna
assay summary: Bioaccumulation test (growth, uptake, depuration; adapted from OECD 305) with passive dosing
Type: in vivo
condition label: eq 4
property label: k2g (growth dilution corrected depuration rate constant)

Solved entries (count: 3):
c1ccc2c(c1)ccc1oc3ccccc3c12 [BNF, benzo[b]naphtho[1,2-d]furan] = 0.022 h⁻¹
c1ccc2c(c1)ccc1sc3ccccc3c12 [BNT, benzo[b]naphtho[1,2-d]thiophene] = 0.040 h⁻¹
c1ccc2c(c1)ccc1oc3ccc4ccccc4c3c12 [DNF, dinaphtho[2,1-b:1′,2′-d]furan] = 0.0105 h⁻¹

Switching to the query record.
The value of k2g (growth dilution corrected depuration rate constant) measured for the compound c1ccc2c(c1)ccc1[nH]c3ccccc3c12 [BCRB, 7H-benzo[c]carbazole] turned out to be 0.109 h⁻¹

###

Entries and their log BCFL5% (BAF*L5%)
Tested on: Daphnia magna
assay summary: Bioaccumulation test (growth, uptake, depuration; adapted from OECD 305) with passive dosing
Format: in vivo
condition label: Table S7, this study
Please give only the number in your answer, with no unit.

Solved entries (count: 3):
c1ccc2c(c1)ccc1oc3ccc4ccccc4c3c12 [DNF, dinaphtho[2,1-b:1′,2′-d]furan] = 3.77
c1ccc2c(c1)ccc1oc3ccccc3c12 [BNF, benzo[b]naphtho[1,2-d]furan] = 3.28
c1ccc2c(c1)ccc1sc3ccccc3c12 [BNT, benzo[b]naphtho[1,2-d]thiophene] = 4.36

The value of log BCFL5% (BAF*L5%) measured for the compound c1ccc2c(c1)ccc1[nH]c3ccccc3c12 [BCRB, 7H-benzo[c]carbazole] turned out to be 3.6

###

Tested on: Daphnia magna
assay summary: Bioaccumulation test (growth, uptake, depuration; adapted from OECD 305) with passive dosing
Assay type: in vivo
condition label: Table S7, this study
Entries and their log k2 (growth-dilution corrected, k2g)
Reply numerically in h-1, unit not repeated.

Solved entries (count: 3):
c1ccc2c(c1)ccc1sc3ccccc3c12 [BNT, benzo[b]naphtho[1,2-d]thiophene] = -1.39
c1ccc2c(c1)ccc1[nH]c3ccccc3c12 [BCRB, 7H-benzo[c]carbazole] = -0.96
c1ccc2c(c1)ccc1oc3ccccc3c12 [BNF, benzo[b]naphtho[1,2-d]furan] = -1.66

Switching to the query record.
Measured log k2 (growth-dilution corrected, k2g) for this entry c1ccc2c(c1)ccc1oc3ccc4ccccc4c3c12 [DNF, dinaphtho[2,1-b:1′,2′-d]furan] on Daphnia magna: -1.98

###

assay summary: Chronic reproduction toxicity test (OECD 211) with passive dosing
Format: in vivo, Daphnia magna
condition label: Daphnia magna, in vivo, other: waterborne exposure by passive dosing from PDMS disks; 21-day test, 0.38 µg/L (Fig. S8); read-out: % offspring mortality of total offspring
property label: mortality at 21 days, 0.38 µg/L
In your response, the unit should come after the numeric value.

The value of mortality at 21 days, 0.38 µg/L measured for the compound c1ccc2c(c1)ccc1sc3ccccc3c12 [BNT, benzo[b]naphtho[1,2-d]thiophene] turned out to be 11.7%

###

assay summary: Bioaccumulation test (growth, uptake, depuration; adapted from OECD 305) with passive dosing
Type: in vivo, Daphnia magna
condition label: whole body (homogenate, wet weight), t50 (time to reach 50% steady-state / depuration half-life), estimated from k2, eq 5
property label: half-life (h)
Reply numerically in h, unit not repeated.

The value of half-life measured for the molecule c1ccc2c(c1)ccc1sc3ccccc3c12 [BNT, benzo[b]naphtho[1,2-d]thiophene] turned out to be 17

###

assay summary: Chronic reproduction toxicity test (OECD 211) with passive dosing
Format: in vivo, Daphnia magna
condition label: Daphnia magna, in vivo, other: waterborne exposure by passive dosing from PDMS disks; 21-day test, 68.2 µg/L (Fig. S8); read-out: % offspring mortality of total offspring
property label: mortality at 21 days, 68.2 µg/L (%)
Reply numerically in %, unit not repeated.

The value of mortality at 21 days, 68.2 µg/L measured for the compound c1ccc2c(c1)ccc1[nH]c3ccccc3c12 [BCRB, 7H-benzo[c]carbazole] turned out to be 32.4
